- procedure text: Plasma pharmacokinetics of CX-5461 (HPLC-MS/MS, non-compartmental)
- Assay type: in vivo, human
- condition context: human, plasma, intravenous, 475 mg/m2, RP2D 475 mg/m^2 d1,8,15; plasma; read-out: day 15 Cmax
property measured: Cmax (ng/mL)
Numbers only, in ng/mL.

### Prompt Output measured Cmax for this item: Cc1cnc(CNC(=O)c2c(=O)c3ccc(N4CCCN(C)CC4)nc3n3c2sc2ccccc23)cn1
### Response 2870

----------
- procedure text: Plasma pharmacokinetics of CX-5461 (HPLC-MS/MS, non-compartmental)
- Type: in vivo, human
- condition context: human, plasma, intravenous, 50 mg/m2, 50 mg/m2; Time 6; individual patients; read-out: Day 1 CX-5461 plasma concentration
property measured: concentration at 6 h
Your reply should be a number followed by the unit it is expressed in.

### Prompt Output measured concentration at 6 h for this item: Cc1cnc(CNC(=O)c2c(=O)c3ccc(N4CCCN(C)CC4)nc3n3c2sc2ccccc23)cn1
### Response 61.6 ng/mL
